Listed below: Trimeric HA Binding RLU values for each entry.
system_name: recombinant homotrimeric HA, A/Vietnam/1203/04 H5N1 (Influenza A virus A/Vietnam/1203/04 (H5N1))
protocol_details: trimeric HA microarray, transfection set 3
measurement_context: remark: other sources report otherwise
Please reply with the bare figure in RLU and do not write the unit itself.

Worked cases, Trimeric HA Binding RLU given:
TCN-531 (5091_H13) (antibody, V domains shown) VH: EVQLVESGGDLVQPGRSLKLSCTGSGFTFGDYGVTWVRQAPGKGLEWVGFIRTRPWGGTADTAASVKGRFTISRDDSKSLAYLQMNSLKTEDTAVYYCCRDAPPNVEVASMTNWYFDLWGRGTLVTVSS VL: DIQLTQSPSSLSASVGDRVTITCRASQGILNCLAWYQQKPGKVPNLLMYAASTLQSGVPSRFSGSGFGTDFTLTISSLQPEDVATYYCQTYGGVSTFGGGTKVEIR
2410
TCN-504 (3251_K17) (antibody, V domains shown) VH: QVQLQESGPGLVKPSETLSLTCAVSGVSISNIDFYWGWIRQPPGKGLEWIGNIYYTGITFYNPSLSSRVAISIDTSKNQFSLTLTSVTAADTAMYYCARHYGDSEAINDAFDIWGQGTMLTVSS VL: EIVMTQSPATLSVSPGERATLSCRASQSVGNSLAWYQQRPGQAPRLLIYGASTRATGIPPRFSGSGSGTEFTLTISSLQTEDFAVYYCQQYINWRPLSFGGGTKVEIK
13300
TCN-533 (5256_A17) (antibody, V domains shown) VH: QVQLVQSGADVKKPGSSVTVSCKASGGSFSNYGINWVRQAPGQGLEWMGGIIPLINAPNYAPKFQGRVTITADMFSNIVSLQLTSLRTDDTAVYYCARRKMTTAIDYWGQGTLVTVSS VL: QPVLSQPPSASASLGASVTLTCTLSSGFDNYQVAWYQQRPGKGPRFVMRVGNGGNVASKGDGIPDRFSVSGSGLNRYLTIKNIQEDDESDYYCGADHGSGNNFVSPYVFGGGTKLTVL
11700
TCN-530 (5248_H10a) (antibody, V domains shown) VH: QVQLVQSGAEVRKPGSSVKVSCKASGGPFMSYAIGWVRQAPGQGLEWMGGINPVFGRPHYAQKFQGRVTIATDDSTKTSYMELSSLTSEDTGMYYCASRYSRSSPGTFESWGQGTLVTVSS VL: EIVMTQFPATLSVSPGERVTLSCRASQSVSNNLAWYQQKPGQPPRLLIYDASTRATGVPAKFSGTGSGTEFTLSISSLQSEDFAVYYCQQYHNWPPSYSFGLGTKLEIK
25200

Now look at this entry.
binder TCN-523 (5248_A17) (antibody, V domains shown) VH: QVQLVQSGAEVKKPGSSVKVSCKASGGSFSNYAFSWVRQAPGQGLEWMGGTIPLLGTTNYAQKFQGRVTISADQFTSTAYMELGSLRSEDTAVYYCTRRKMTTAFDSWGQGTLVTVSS VL: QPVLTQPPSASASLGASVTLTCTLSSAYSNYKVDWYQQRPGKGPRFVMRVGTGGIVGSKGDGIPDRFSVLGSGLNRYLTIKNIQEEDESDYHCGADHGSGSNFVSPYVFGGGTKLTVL , Trimeric HA Binding RLU observed: 22100
